Cited source: patent US20220064329A1

Target: T1, recombinant human activated Factor VII (FVIIa) (human, UniProt P08709 61-212; P08709 213-466, ten glutamate residues of the Gla domain may be gamma-carboxylated)
T1 construct: chains tethered by a disulfide bond; also called Factor VIIa; rFVIIa
T1 sequence 1: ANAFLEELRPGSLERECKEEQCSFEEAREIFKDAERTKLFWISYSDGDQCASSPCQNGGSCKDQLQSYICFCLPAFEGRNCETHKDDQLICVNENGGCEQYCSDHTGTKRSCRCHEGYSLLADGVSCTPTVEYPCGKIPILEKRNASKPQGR
T1 sequence 2: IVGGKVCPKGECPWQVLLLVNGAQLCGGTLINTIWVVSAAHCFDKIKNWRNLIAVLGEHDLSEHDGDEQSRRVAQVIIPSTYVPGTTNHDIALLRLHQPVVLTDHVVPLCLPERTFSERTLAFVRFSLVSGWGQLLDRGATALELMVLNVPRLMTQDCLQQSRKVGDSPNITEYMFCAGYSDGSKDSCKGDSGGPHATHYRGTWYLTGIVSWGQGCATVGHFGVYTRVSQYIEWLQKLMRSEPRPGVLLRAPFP
Assay: BLI (Fortebio)
I'd appreciate it if you could supply pKd values for the items below.
Scale: pKd equals -log10([C]), with [C] in mol/L.

Input line: pKd for VH SEQ ID NO 546 / VL SEQ ID NO 318 (antibody, IgG4, V domains shown, humanized 11F2; IgG4 S228P/kappa) VH: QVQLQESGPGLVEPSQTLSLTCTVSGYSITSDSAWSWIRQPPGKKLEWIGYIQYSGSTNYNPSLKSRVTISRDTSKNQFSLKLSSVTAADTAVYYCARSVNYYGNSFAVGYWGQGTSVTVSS VL: EIVLTQSPATLSLSPGERATLSCRASQGISDYLHWYQQKPGEAPRLLIKYTSQPATGIPARFSGSGSGTDFTLTISSLEPEDFAVYYCQNGHSFPLTFGQGTKLEIK ?
Output line: 9.07

Input line: pKd for VH SEQ ID NO 642 / VL SEQ ID NO 342 (antibody, IgG4, V domains shown, humanized 11F2; IgG4 S228P/kappa) VH: QVQLQESGPGLVKPSQTLSLTCTVSGYSISSDSAWSWIRQPPGKGLEWIGYIYYSGSTNYNPSLKSRVTISVDTSKNQFSLKLSSVTAADTAVYYCARSVNYYGNSFAVGYWGQGTSVTVSS VL: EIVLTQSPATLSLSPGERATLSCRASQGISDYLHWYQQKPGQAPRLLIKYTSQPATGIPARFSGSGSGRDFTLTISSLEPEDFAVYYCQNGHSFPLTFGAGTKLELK ?
Output line: 7.40

Input line: pKd for VH SEQ ID NO 610 / VL SEQ ID NO 390 (antibody, IgG4, V domains shown, humanized 11F2; IgG4 S228P/kappa) VH: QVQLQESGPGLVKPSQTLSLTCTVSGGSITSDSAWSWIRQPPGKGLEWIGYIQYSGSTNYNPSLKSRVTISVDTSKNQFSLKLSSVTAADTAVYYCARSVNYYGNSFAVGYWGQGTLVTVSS VL: EIVLTQSPATLSLSPGERATLSCRASQGVSDYLAWYQQKPGEAPRLLIKYASQPATGIPARFSGSGSGTDFTLTISSLEPEDFAVYYCQNGHSFPLTFGQGTKLEIK ?
Output line: 6.42
